Tested on: Plasmodium berghei
Assay: Luciferase/luciferin-expressing antifolate-resistant parasites were used to infect a culture of HepG2 cells that were pre-incubated with compounds. Infected hepatocytes emit light due to the luciferase reaction. Assay results are presented as the percent inhibition of light emission compared to control. […]
Format: functional
Details: sporozoite, HEPG2TOX_HILL_SLOPE 6.97, HEPG2TOX_R_SQUARED 0.551, PBLUC_HILL_SLOPE 16.8, PBLUC_R_SQUARED 0.476, read-out: LUCIFERASE INFECTION ASSAY - IC50

{"columns": ["COMPOUND", "TGT", "IC50"],
 "data": [
  ["CC1CCCC(N2CC(C(=O)Nc3nc(-c4ccccn4)cs3)CC2=O)C1C (stereo unspecified)", "Plasmodium berghei", "3.21 µM"]
]}

====

Test system: Plasmodium berghei
Assay: Luciferase/luciferin-expressing antifolate-resistant parasites were used to infect a culture of HepG2 cells that were pre-incubated with compounds. Infected hepatocytes emit light due to the luciferase reaction. Assay results are presented as the percent inhibition of light emission compared to control. […]
Assay type: functional
Conditions: sporozoite, PBLUC_HILL_SLOPE 2.53, PBLUC_R_SQUARED 0.451, read-out: LUCIFERASE INFECTION ASSAY - IC50
pIC50: −log10 of the molar value.
REPORTED METRIC: pIC50

{"columns": ["GIVEN SMILES", "TGT", "OBSERVED"],
 "data": [
  ["CCCCOCCCNC(=O)c1cc2ccccc2cc1OC", "Plasmodium berghei", 5.18]
]}

====

Test system: Plasmodium berghei
Assay: Luciferase/luciferin-expressing antifolate-resistant parasites were used to infect a culture of HepG2 cells that were pre-incubated with compounds. Infected hepatocytes emit light due to the luciferase reaction. Assay results are presented as the percent inhibition of light emission compared to control. […]
Type: functional
Conditions: sporozoite, PBLUC_HILL_SLOPE 3.89, PBLUC_R_SQUARED 0.276, read-out: LUCIFERASE INFECTION ASSAY - IC50
pIC50: −log10 of the molar value.

{"columns": ["GIVEN SMILES", "pIC50"],
 "data": [
  ["CC(C)c1ccc(CN2CCN(C(=O)CNC(=O)c3ccc(Br)o3)CC2)cc1", 5.04]
]}

====

Test system: Plasmodium berghei
Experiment: Luciferase/luciferin-expressing antifolate-resistant parasites were used to infect a culture of HepG2 cells that were pre-incubated with compounds. Infected hepatocytes emit light due to the luciferase reaction. Assay results are presented as the percent inhibition of light emission compared to control. […]
Assay type: functional
Settings: sporozoite, HEPG2TOX_HILL_SLOPE 28, HEPG2TOX_R_SQUARED 0.813, PBLUC_HILL_SLOPE 18.1, PBLUC_R_SQUARED 0.807, read-out: LUCIFERASE INFECTION ASSAY - IC50
REPORTED METRIC: IC50 (µM)

{"columns": ["GIVEN SMILES", "REPORTED METRIC", "UNIT SPEC", "OBSERVED"],
 "data": [
  ["N#Cc1ccc(C(=O)Nc2ccc(Br)c(C(F)(F)F)c2)cc1", "IC50", "µM", 8.76]
]}

====

Tested on: Plasmodium berghei
Assay: Luciferase/luciferin-expressing antifolate-resistant parasites were used to infect a culture of HepG2 cells that were pre-incubated with compounds. Infected hepatocytes emit light due to the luciferase reaction. Assay results are presented as the percent inhibition of light emission compared to control. […]
Format: functional
Details: sporozoite, PBLUC_HILL_SLOPE 12.4, PBLUC_R_SQUARED 0.188, read-out: LUCIFERASE INFECTION ASSAY - IC50
REPORTED METRIC: IC50 (µM)

{"columns": ["GIVEN SMILES", "REPORTED METRIC", "UNIT SPEC", "OBSERVED"],
 "data": [
  ["O=C(Nc1cccc(C(F)(F)F)c1)c1cccc(Cn2cc(C(F)(F)F)ccc2=O)c1", "IC50", "µM", 6.37]
]}

====

System: Plasmodium berghei
Assay: Luciferase/luciferin-expressing antifolate-resistant parasites were used to infect a culture of HepG2 cells that were pre-incubated with compounds. Infected hepatocytes emit light due to the luciferase reaction. Assay results are presented as the percent inhibition of light emission compared to control. […]
Assay type: functional
Details: sporozoite, read-out: LUCIFERASE INFECTION ASSAY - IC90
Reported IC90 values follow for various molecules
REPORTED METRIC: IC90 (µM)

{"columns": ["GIVEN SMILES", "COMPARISON SYMBOL", "OBSERVED"],
 "data": [
  ["COc1ccc(-c2cc(C(=O)NNC(=O)CC(C)C)[nH]n2)cc1", ">", 10],
  ["CNc1nc2cnc(Nc3ccc(SC)cc3)cc2n1Cc1ccc(OC)c(OC)c1", ">", 10],
  ["CCN(CC)S(=O)(=O)N1CCN(C(=O)c2[nH]nc3ccccc23)CC1", "=", 3.63],
  ["Cc1cc(N2CCN(c3cnn(-c4nc5ccccc5[nH]4)c(=O)c3Cl)CC2)nc(C(C)C)n1", "=", 7.33],
  ["CN(C)c1ccc(S(N)(=O)=O)cc1NC(=O)Cc1ccc(-c2ccccc2)cc1", ">", 10]
]}

====

Tested on: Plasmodium berghei
Assay: Luciferase/luciferin-expressing antifolate-resistant parasites were used to infect a culture of HepG2 cells that were pre-incubated with compounds. Infected hepatocytes emit light due to the luciferase reaction. Assay results are presented as the percent inhibition of light emission compared to control. […]
Format: functional
Conditions: sporozoite, PBLUC_HILL_SLOPE 0.992, PBLUC_R_SQUARED 0.815, read-out: LUCIFERASE INFECTION ASSAY - IC50

{"columns": ["GIVEN SMILES", "IC50"],
 "data": [
  ["CCOC(=O)c1cc(-c2ccc(OC)cc2)nn1-c1cccc(C)c1", "> 10 µM"]
]}

====

System: Plasmodium berghei
Assay: Luciferase/luciferin-expressing antifolate-resistant parasites were used to infect a culture of HepG2 cells that were pre-incubated with compounds. Infected hepatocytes emit light due to the luciferase reaction. Assay results are presented as the percent inhibition of light emission compared to control. […]
Assay type: functional
Conditions: sporozoite, PBLUC_HILL_SLOPE 4.38, PBLUC_R_SQUARED 0.362, read-out: LUCIFERASE INFECTION ASSAY - IC50
pIC50: −log10 of the molar value.
REPORTED METRIC: pIC50

{"columns": ["COMPOUND", "TGT", "REPORTED METRIC", "OBSERVED"],
 "data": [
  ["Cc1ccc2nc(NC(=O)C(C)Oc3ccccc3)c(C(=O)NC3CCCC3)n2c1 (stereo unspecified)", "Plasmodium berghei", "pIC50", 5.38]
]}

====

Tested on: Plasmodium berghei
Experiment: Luciferase/luciferin-expressing antifolate-resistant parasites were used to infect a culture of HepG2 cells that were pre-incubated with compounds. Infected hepatocytes emit light due to the luciferase reaction. Assay results are presented as the percent inhibition of light emission compared to control. […]
Type: functional
Details: sporozoite, HEPG2TOX_HILL_SLOPE 3.1, HEPG2TOX_R_SQUARED 0.978, PBLUC_HILL_SLOPE 7.42, PBLUC_R_SQUARED 0.525, read-out: LUCIFERASE INFECTION ASSAY - IC50
pIC50: −log10 of the molar value.

{"columns": ["GIVEN SMILES", "pIC50"],
 "data": [
  ["c1ccc2cc(-c3cnc4ccc(NCc5ccncc5)nn34)ccc2c1", 5.48]
]}

====

Tested on: Plasmodium berghei
Assay: Luciferase/luciferin-expressing antifolate-resistant parasites were used to infect a culture of HepG2 cells that were pre-incubated with compounds. Infected hepatocytes emit light due to the luciferase reaction. Assay results are presented as the percent inhibition of light emission compared to control. […]
Assay type: functional
Conditions: sporozoite, HEPG2TOX_HILL_SLOPE 1.92, HEPG2TOX_R_SQUARED 0.889, PBLUC_HILL_SLOPE 0.417, PBLUC_R_SQUARED 0.183, read-out: LUCIFERASE INFECTION ASSAY - IC50

{"columns": ["COMPOUND", "IC50 [µM]"],
 "data": [
  ["COc1ccc(C(OC(=O)c2ccccc2)c2nccc3ccccc23)cc1 (stereo unspecified)", 5.78]
]}

====

System: Plasmodium berghei
Assay: Luciferase/luciferin-expressing antifolate-resistant parasites were used to infect a culture of HepG2 cells that were pre-incubated with compounds. Infected hepatocytes emit light due to the luciferase reaction. Assay results are presented as the percent inhibition of light emission compared to control. […]
Assay type: functional
Settings: sporozoite, PBLUC_HILL_SLOPE 10.5, PBLUC_R_SQUARED 0.247, read-out: LUCIFERASE INFECTION ASSAY - IC50
pIC50: −log10 of the molar value.
REPORTED METRIC: pIC50

{"columns": ["GIVEN SMILES", "REPORTED METRIC", "OBSERVED"],
 "data": [
  ["Cc1cc(C)c(C)c(S(=O)(=O)N2CCN(S(=O)(=O)c3ccc(C(C)C)cc3)CC2)c1C", "pIC50", 5.06]
]}
